- system_tested: HLA-A*02 (human)
- method_description: UV-ligand exchange, anti-b2m ELISA; grade: exchange yield >=75%
quantity_name: peptide exchange yield

{"columns": ["binder", "quantity_name", "reported_value"],
 "data": [
  ["SLLEEFDFHV (also called USO-001)", "peptide exchange yield", "≥ 75%"],
  ["ALQDQLVLV", "peptide exchange yield", "≥ 75%"],
  ["RIAGIRGIQGV", "peptide exchange yield", "≥ 75%"],
  ["KLYQEVEIASV", "peptide exchange yield", "≥ 75%"],
  ["QLHDFVMSL", "peptide exchange yield", "≥ 75%"],
  ["ALTSVVVTL", "peptide exchange yield", "≥ 75%"],
  ["RLFADILNDV", "peptide exchange yield", "≥ 75%"]
]}

Turning now to a further binder:
Asked: Reported peptide exchange yield, binder `VLIGSNHSL` : ____
Given back: ≥ 75%
